// values below are reported pIC50
Biological target: Mps-1 kinase (Homo sapiens)
Sequence (P33981 whole entry): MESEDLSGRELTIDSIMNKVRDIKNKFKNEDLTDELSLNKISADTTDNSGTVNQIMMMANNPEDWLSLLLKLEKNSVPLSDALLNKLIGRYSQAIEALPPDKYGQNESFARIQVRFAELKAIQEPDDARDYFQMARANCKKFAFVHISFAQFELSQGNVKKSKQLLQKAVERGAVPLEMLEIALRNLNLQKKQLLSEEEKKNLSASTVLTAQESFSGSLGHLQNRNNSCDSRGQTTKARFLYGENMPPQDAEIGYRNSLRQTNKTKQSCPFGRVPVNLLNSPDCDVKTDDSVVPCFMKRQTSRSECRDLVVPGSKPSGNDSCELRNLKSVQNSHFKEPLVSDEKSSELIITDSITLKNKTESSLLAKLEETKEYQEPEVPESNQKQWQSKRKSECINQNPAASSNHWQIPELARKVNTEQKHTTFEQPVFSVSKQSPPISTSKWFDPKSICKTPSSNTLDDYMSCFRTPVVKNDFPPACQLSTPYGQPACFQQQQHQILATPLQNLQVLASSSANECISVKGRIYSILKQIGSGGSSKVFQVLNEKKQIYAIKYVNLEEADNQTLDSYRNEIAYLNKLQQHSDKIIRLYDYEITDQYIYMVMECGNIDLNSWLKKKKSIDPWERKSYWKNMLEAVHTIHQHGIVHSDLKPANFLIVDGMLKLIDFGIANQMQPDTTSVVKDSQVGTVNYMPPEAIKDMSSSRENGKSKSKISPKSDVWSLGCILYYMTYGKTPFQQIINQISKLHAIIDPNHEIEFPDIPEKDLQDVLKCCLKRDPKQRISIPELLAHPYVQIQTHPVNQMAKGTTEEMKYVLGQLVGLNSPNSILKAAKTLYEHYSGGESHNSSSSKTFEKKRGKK
Assay: Mps-1 kinase assay with 2 mM ATP (TR-FRET)
pIC50: −log10 of the molar value.

Molecule	Relation Qualifier	pIC50
CCOc1cc(C(=O)N(CC)CC)ccc1Nc1nc2ccc(-c3ccc(NC(=O)Cc4ccc(F)cc4)cc3)cn2n1	≥	9.00
COc1cc(C(=O)N(C)CCN(C)C(C)=O)ccc1Nc1nc2ccc(-c3ccc(C(=O)NCc4ccc(F)cc4)cc3)cn2n1	=	8.66
Cc1cc(C(=O)NCCF)ccc1Nc1nc2ccc(-c3ccc(C(=O)NCc4ccc(F)cc4)cc3)cn2n1	=	8.30
COc1cc(C(=O)NCCN(C)C)ccc1Nc1nc2ccc(-c3ccc(C(=O)NCc4ccc(F)cc4)cc3)cn2n1	=	8.89
COc1cc(S(C)(=O)=O)ccc1Nc1nc2ccc(-c3ccc(C(=O)NCc4ccc(F)cc4F)cc3)cn2n1	=	7.96
O=C(NCCF)c1ccc(Nc2nc3ccc(-c4ccc(C(=O)NCc5ccc(F)cc5)cc4)cn3n2)c(OCC(F)(F)F)c1	≥	9.00
Cc1cc([S@@+](C)[O-])ccc1Nc1nc2ccc(-c3ccc(C(=O)NCc4ccc(F)cc4)cc3)cn2n1 (stereo in doubt)	=	8.35
CCOc1cc(S(C)(=O)=O)ccc1Nc1nc2ccc(-c3ccc(C(=O)NCc4ccc(F)cc4)cc3)cn2n1	=	8.48
CCOc1cc(C(=O)NC(C)(C)C)ccc1Nc1nc2ccc(-c3ccc(C(=O)NCc4ccc(F)cc4)cc3)cn2n1	=	8.62
Cc1cc([S@@+](C)[O-])ccc1Nc1nc2ccc(-c3ccc(C(=O)NCc4ccc(Cl)cc4)cc3)cn2n1 (stereo in doubt)	=	8.29
CCOc1cc(C(=O)NC(C)(C)CO)ccc1Nc1nc2ccc(-c3ccc(NC(=O)Cc4ccc(F)cc4)cc3)cn2n1	≥	9.00
CCS(=O)(=O)c1ccc(Nc2nc3ccc(-c4ccc(C(=O)NCc5ccc(F)cc5)cc4)cn3n2)c(OC(F)F)c1	=	8.21
CC(C)(CO)NC(=O)c1ccc(Nc2nc3ccc(-c4ccc(C(=O)NCc5ccc(F)cc5)cc4)cn3n2)c(OCC(F)(F)F)c1	≥	9.00

Recorded values, source patent US20140120087A1.
